Where do the numbers come from? From ChEMBL document CHEMBL3758085.

# Tested on: MDA-MB-468
# Experiment: Antiproliferative activity against human MDA-MB-468 cells assessed as cell growth at 1 uM incubated for 3 days by 3H-thymidine incorporation assay relative to control
# Format: functional
# Condition parameters: read-out: Activity
For each entry below, report its growth at 1 µM value.
Give bare numbers, in %.

Observe how each entry below is paired with its result.
>>> test_result("Cc1cc(C)c(NC(=O)c2sc3nc4c(cc3c2N)CCCC4)c(C)c1")
93
>>> test_result("Nc1c(C(=O)Nc2ccccc2)sc2nc3c(cc12)CCCCC3")
5
>>> test_result("Nc1c(C(=O)Nc2ccc3ccccc3c2)sc2nc3c(cc12)CCCCC3")
97
>>> test_result("Nc1c(C(=O)Nc2c(Cl)cccc2Cl)sc2nc3c(cc12)CCCC3")
82

Record growth at 1 µM for all entries; do not skip any.
1. Nc1c(C(=O)Nc2ccccc2F)sc2nc3c(cc12)CCCCCC3
2. CCc1cccc(C)c1NC(=O)c1sc2nc3c(cc2c1N)CCCC3
3. Nc1c(C(=O)Nc2cccc(Cl)c2)sc2nc3c(cc12)CCCCC3

[5, 67, 39]

====

For each entry below, report its growth at 1 µM value.
# Tested on: MDA-MB-468
# Experiment: Antiproliferative activity against human MDA-MB-468 cells assessed as cell growth at 1 uM incubated for 3 days by 3H-thymidine incorporation assay relative to control
# Assay type: functional
# Condition parameters: read-out: Activity
Numbers only, in %.

>>> test_result("Nc1c(C(=O)Nc2cccc(Br)c2)sc2nc3c(cc12)CCCCC3")
45
>>> test_result("Nc1c(C(=O)Nc2ccc(Cl)cc2)sc2nc3c(cc12)CCCCCC3")
82
>>> test_result("Nc1c(C(=O)Nc2cccc3ccccc23)sc2nc3c(cc12)CCCCC3")
91
>>> test_result("CCc1cccc(CC)c1NC(=O)c1sc2nc3c(cc2c1N)CCCC3")
116
>>> test_result("CCOc1ccc2nc3sc(C(=O)Nc4ccc(Cl)cc4)c(N)c3cc2c1")
93
>>> test_result("Nc1c(C(=O)Nc2ccc3ccccc3c2)sc2nc3c(cc12)CCCC3")
76
>>> test_result("Cc1ccc2cc3cc(C(=O)Nc4cnc5ccccc5c4)sc3nc2c1")
87
>>> test_result("Cc1c(Cl)cccc1NC(=O)c1sc2nc3c(cc2c1N)CCC3")
4
>>> test_result("CCCCOc1cccc(NC(=O)c2sc3nc4c(cc3c2N)CCCCC4)c1")
53
>>> test_result("Cc1c(Br)cccc1NC(=O)c1sc2nc3c(cc2c1N)CCC3")
5

Please examine the following record next.
Give a short answer stating reported growth at 1 µM for `Cc1ccc2nc3sc(C(=O)Nc4cccc(F)c4)cc3cc2c1` .
91

====

# Experiment: Antiproliferative activity against human HCT116 cells assessed as cell growth at 1 uM incubated for 3 days by 3H-thymidine incorporation assay relative to control
# Assay type: functional
# Condition parameters: HCT-116, read-out: Activity
For each entry below, report its growth at 1 µM value.
Numbers only, in %.

Observe how each entry below is paired with its result.
>>> test_result("Cc1ccc2nc3sc(C(=O)Nc4ccccc4C)cc3cc2c1")
99
>>> test_result("COc1cccc(NC(=O)c2sc3nc4c(cc3c2N)CCC4)c1")
92
>>> test_result("Nc1c(C(=O)Nc2cccc(C(F)(F)F)c2)sc2nc3c(cc12)CCCCC3")
108

Record growth at 1 µM for all entries; do not skip any.
1. COc1ccc(NC(=O)c2sc3nc4c(cc3c2N)CCCCCC4)cc1
2. Nc1c(C(=O)Nc2ccccc2F)sc2nc3c(cc12)CCCC3
3. Nc1c(C(=O)Nc2cccc(Br)c2)sc2nc3c(cc12)CCCCC3

1: 106; 2: 84; 3: 83

====

# Experiment: Antiproliferative activity against human HCT116 cells assessed as cell growth at 1 uM incubated for 3 days by 3H-thymidine incorporation assay relative to control
# Type: functional
# Condition parameters: HCT-116, read-out: Activity
For each entry below, report its growth at 1 µM value.
One number for each entry, in %.

>>> test_result("Nc1c(C(=O)Nc2ccccc2)sc2nc3c(c(-c4ccco4)c12)CCCCC3")
65
>>> test_result("Cc1ccc2nc3sc(C(=O)Nc4cccc(F)c4)cc3cc2c1")
98
>>> test_result("Nc1c(C(=O)Nc2cc(C(F)(F)F)ccc2Cl)sc2nc3c(cc12)CCCCC3")
98
>>> test_result("Cc1ccc2nc3sc(C(=O)Nc4ccccc4)cc3cc2c1")
95
>>> test_result("Nc1c(C(=O)Nc2ccccc2C(F)(F)F)sc2nc3c(cc12)CCCC3")
104
>>> test_result("Nc1c(C(=O)Nc2cccc(C(F)(F)F)c2)sc2nc3c(cc12)CCC3")
90
>>> test_result("CC(=O)c1ccc(NC(=O)c2sc3nc4ccccc4cc3c2N)cc1")
93
>>> test_result("COc1ccc(NC(=O)c2sc3nc4c(cc3c2N)CCCCCC4)cc1OC")
106
>>> test_result("CCc1cccc(NC(=O)c2sc3nc4c(cc3c2N)CC(CC)CC4)c1 (stereo unspecified)")
73
>>> test_result("Cc1ccc2cc3cc(C(=O)Nc4cnc5ccccc5c4)sc3nc2c1")
99

Please examine the following record next.
Give a short answer stating reported growth at 1 µM for `Nc1c(C(=O)Nc2cccc(C(F)(F)F)c2)sc2nc3c(cc12)CCCC3` .
82

====

# Test system: K562
# Experiment: Antiproliferative activity against human K562 cells assessed as cell growth incubated for 3 days by 3H-thymidine incorporation assay relative to control
# Format: functional, cell-based
Observed property: pIC50
Give bare numbers, as −log10 of the molar value.

Observe how each entry below is paired with its result.
>>> test_result("Nc1c(C(=O)Nc2ccccc2)sc2nc3c(cc12)CCCCC3")
6.24
>>> test_result("Nc1c(C(=O)Nc2cccc(F)c2)sc2nc3c(cc12)CCCC3")
6.26
>>> test_result("Nc1c(C(=O)Nc2cccc(F)c2)sc2nc3c(cc12)CCCCC3")
6.25
>>> test_result("Nc1c(C(=O)Nc2ccccc2)sc2nc3c(cc12)CCCC3")
6.28
>>> test_result("Cc1cccc(NC(=O)c2sc3nc4c(cc3c2N)CCCCCC4)c1C")
7.08

Record pIC50 for all entries; do not skip any.
1. Nc1c(C(=O)Nc2cccc3ccccc23)sc2nc3c(cc12)CCCC3
2. Cc1cccc(NC(=O)c2sc3nc4c(cc3c2N)CCCC4)c1C
3. Cc1c(Cl)cccc1NC(=O)c1sc2nc3c(cc2c1N)CCC3
4. Cc1c(Cl)cccc1NC(=O)c1sc2nc3c(cc2c1N)CCCC3

1: 6.24; 2: 6.82; 3: 6.71; 4: 6.82

Record pIC50 for all entries; do not skip any.
1. Cc1c(Br)cccc1NC(=O)c1sc2nc3c(cc2c1N)CCC3
2. Cc1c(Br)cccc1NC(=O)c1sc2nc3c(cc2c1N)CCCC3

1: 7.08; 2: 6.73

====

# Tested on: MDA-MB-231
# Experiment: Antiproliferative activity against human MDA-MB-231 cells assessed as cell growth at 1 uM incubated for 3 days by 3H-thymidine incorporation assay relative to control
# Type: functional
# Condition parameters: read-out: Activity
1 (yes) if growth at 1 µM is below 90%. 0 (no) if not; exact matches included in 0 (no).

Identify whether the compound `COc1ccc(OC)c(NC(=O)c2sc3nc4c(cc3c2N)CCCCC4)c1` records growth at 1 µM below 90%.
0 (no)

Identify whether the compound `COc1ccc(NC(=O)c2sc3nc4c(cc3c2N)CCCCCC4)c(OC)c1` records growth at 1 µM below 90%.
0 (no)

====

# Tested on: MDA-MB-231
# Experiment: Antiproliferative activity against human MDA-MB-231 cells assessed as cell growth at 1 uM incubated for 3 days by 3H-thymidine incorporation assay relative to control
# Assay type: functional
# Condition parameters: read-out: Activity
For each entry below, report its growth at 1 µM value.
Answers without a unit are incomplete; give the number and then its unit.

Observe how each entry below is paired with its result.
>>> test_result("COc1ccc(NC(=O)c2sc3nc4ccccc4cc3c2N)cc1")
"101%"
>>> test_result("COc1cccc(NC(=O)c2sc3nc4c(cc3c2N)CCC4)c1")
"95%"
>>> test_result("Cc1c(Cl)cccc1NC(=O)c1sc2nc3c(cc2c1N)CCC3")
"11%"
>>> test_result("Cc1ccc2nc3sc(C(=O)Nc4cccnc4)cc3cc2c1")
"81%"

Record growth at 1 µM for all entries; do not skip any.
1. Nc1c(C(=O)Nc2cccc(Br)c2)sc2nc3c(cc12)CCCC3
2. Nc1c(C(=O)Nc2ccccc2C(F)(F)F)sc2nc3c(cc12)CCCC3
3. Nc1c(C(=O)Nc2ccc(F)cc2)sc2nc3c(cc12)CCCCCC3
4. COc1ccc(NC(=O)c2sc3nc4c(cc3c2N)CCCCC4)cc1OC

101%
128%
100%
114%
